Assay Procedure: Protein binding in rat plasma
Type: ADME, cell-free
Applied Conditions: read-out: PPB (converted)
Value Type: fraction unbound

Here are 2 molecules together with their reported answers.
Cc1nnc2n1-c1ccc(-c3cnn(C)c3)cc1N(c1ccc(Cl)cc1)CC2: 0.05
Cc1nnc2n1-c1ccccc1N(c1ccc(Cl)cc1)C(C)C2 (stereo not given): 0.03

1 = Cc1noc2c1-c1ccc(-c3cnn(CC(N)=O)c3)cc1N(c1ccc(C#N)cc1)CC2C (stereo not given)
2 = Cc1noc2c1-c1ccc(-c3ccc(N)nc3)cc1N(c1ccc(C#N)cc1)CC2C (stereo not given)
3 = Cc1noc2c1-c1ccc(-c3ccc(N)nc3)cc1N(c1ccc(C#N)cc1)CC2
input: Descending sort on fraction unbound required. List the labels in the requested order.
output: 1, 2, 3

----------
Assay Procedure: AUClast in rat at 10 mg/kg, po
Format: ADME, organism-based
Parameters: time 0 - last, route oral, dose 10 mg/kg
Applied Conditions: in vivo
Value Type: AUC(0-t) (µM·h)
State just the number; it will be interpreted in µM·h.

input: Give AUC(0-t) for Cc1nnc2n1-c1ccc(-c3ccc(N)nc3)cc1N(c1ccc(Cl)cc1)C[C@H]2C
output: 1.4

----------
# Bromodomain-containing protein 4 (Homo sapiens): IC50 values follow
Value Type: IC50 (nM)

1 = Cc1nnc2n1-c1ccc(S(C)(=O)=O)cc1N(c1ccc(Cl)cc1)C[C@H]2C
2 = Cc1nnc2n1-c1ccc(-c3cnn(C)c3)cc1N(c1ccc(Cl)cc1)CC2
3 = Cc1noc2c1-c1ccc(-c3cnn(C)c3)cc1N(c1ccc(C#N)cc1)CC2CC(N)=O (stereo unspecified)
4 = Cc1nnc2n1-c1ccc(-c3ccc(N)nc3)cc1N(c1ccc(Cl)cc1)CC2C (stereo unspecified)
input: Order the entries by their reported IC50, beginning at the minimum. Please express your ranking as an ordered list of the labels.
output: 4, 2, 3, 1
(4: 26 nM, 2: 44 nM, 3: 310 nM, 1: 1200 nM)

----------
Assay Procedure: Clearance in rat at 1 mg/kg, iv
Assay type: ADME, organism-based
Applied Conditions: in vivo
Value Type: clearance (mL/min/kg)
The reply should be a number in mL/min/kg, with the unit left off.

input: Find the measured clearance of Cc1nnc2n1-c1ccc(-c3ccc(N)nc3)cc1N(c1ccc(Cl)cc1)C[C@H]2C and report it.
output: 63.3

----------
Assay Procedure: Intrinsic clearance in rat liver microsomes
Value Type: microsomal CLint (µL/min/mg)

P = Cc1noc2c1-c1ccc(-c3ccc(=O)n(C)c3)cc1N(c1ccc(C#N)cc1)CC2C (stereo not given)
Q = Cc1nnc2n1-c1ccccc1N(c1ccc(Cl)cc1)CC2
input: Quick check, higher microsomal CLint between P and Q ? Mark your selection by writing its label.
output: Q
(Q: 126 µL/min/mg, P: 71 µL/min/mg)

P = Cc1noc2c1-c1ccc(-c3cnn(CC(N)=O)c3)cc1N(c1ccc(C#N)cc1)CC2C (stereo not given)
Q = Cc1noc2c1-c1ccc(-c3ccc(N)nc3)cc1N(c1ccc(C#N)cc1)CC2
input: Which record shows the lower microsomal CLint: the first, P , or the second, Q ? Select an item and report its label.
output: P
(P: 62 µL/min/mg, Q: 195 µL/min/mg)

----------
Assay Procedure: Intrinsic clearance in human liver microsomes
Value Type: microsomal CLint (µL/min/mg)

Worked cases, answers included:
Cc1nnc2n1-c1ccc(-c3cnn(C)c3)cc1N(c1ccc(Cl)cc1)CC2: 14
Cc1nnc2n1-c1ccc(-c3ccc(N)nc3)cc1N(c1ccc(Cl)cc1)C[C@H]2C: 5.1
Cc1noc2c1-c1ccc(-c3ccc(N)nc3)cc1N(c1ccc(C#N)cc1)CC2: 86
CCNC(=O)CC1CN(c2ccc(Cl)cc2)c2ccccc2-n2c(C)nnc21 (stereo not given): 44
Cc1noc2c1-c1ccc(-c3cnn(CC(N)=O)c3)cc1N(c1ccc(C#N)cc1)CC2C (stereo not given): 33

P = Cc1nnc2n1-c1ccccc1N(c1ccc(Cl)cc1)C(C)C2 (stereo not given)
Q = Cc1nnc2n1-c1ccccc1N(c1ccc(Cl)cc1)CC2
R = Cc1noc2c1-c1ccc(-c3ccc(=O)n(C)c3)cc1N(c1ccc(C#N)cc1)CC2C (stereo not given)
S = Cc1nnc2n1-c1ccc(-c3ccc(N)nc3)cc1N(c1ccc(Cl)cc1)CC2C (stereo not given)
input: Sequence the entries by microsomal CLint, beginning with the highest number. Give the labels in the order requested.
output: Q, R, P, S

----------
Target Of Assay: Bromodomain-containing protein 4 (Homo sapiens)
Assay Procedure: Inhibition of BRD4 BD2 (unknown origin) using biotinylated JQ1 analog as substrate measured after 20 mins by AlphaLISA assay
Value Type: pIC50
Convention used: pIC50 is expressed as -log10 of the molar concentration.

input: Return the recorded pIC50 value; entry: Cc1nnc2n1-c1ccc(-c3ccc(N)nc3)cc1N(c1ccc(Cl)cc1)C[C@H]2C
output: 8.52

----------
Assay Procedure: Protein binding in human plasma
Assay type: ADME, cell-free
Applied Conditions: read-out: PPB (converted)
Value Type: fraction unbound

Cc1nnc2n1-c1ccccc1N(c1ccc(Cl)cc1)CC2: 0.05
Cc1noc2c1-c1ccc(-c3cnn(CC(N)=O)c3)cc1N(c1ccc(C#N)cc1)CC2C (stereo not drawn): 0.01
Cc1nnc2n1-c1ccccc1N(c1ccc(Cl)cc1)CC2C (stereo not drawn): 0.03
Cc1nnc2n1-c1ccc(-c3ccc(N)nc3)cc1N(c1ccc(Cl)cc1)C[C@H]2C: 0.02
CCNC(=O)CC1CN(c2ccc(Cl)cc2)c2ccccc2-n2c(C)nnc21 (stereo not drawn): 0.09

A = Cc1noc2c1-c1ccc(-c3cnn(C)c3)cc1N(c1ccc(C#N)cc1)CC2CC(N)=O (stereo not drawn)
B = Cc1nnc2n1-c1ccccc1N(c1ccc(Cl)cc1)C(C)C2 (stereo not drawn)
input: Hi there! Just curious which has the higher fraction unbound between A and B . Reply with the label of the item you choose.
output: B
(B: 0.02, A: 0.01)

I = Cc1nnc2n1-c1ccc(-c3cnn(C)c3)cc1N(c1ccc(Cl)cc1)CC2
II = Cc1noc2c1-c1ccc(-c3ccc(=O)n(C)c3)cc1N(c1ccc(C#N)cc1)CC2C (stereo not drawn)
input: Kindly identify which of I and II has the larger recorded fraction unbound value. Bench note: the answer is the label of the chosen record.
output: I

----------
Assay Procedure: Protein binding in rat plasma
Format: ADME, cell-free
Applied Conditions: read-out: PPB (converted)
Value Type: fraction unbound

Worked cases, fraction unbound given:
CCNC(=O)CC1CN(c2ccc(Cl)cc2)c2ccccc2-n2c(C)nnc21 (stereo not given): 0.13
Cc1nnc2n1-c1ccccc1N(c1ccc(Cl)cc1)CC2C (stereo not given): 0.04

P = Cc1noc2c1-c1ccc(-c3cnn(C)c3)cc1N(c1ccc(C#N)cc1)CC2CC(N)=O (stereo not given)
Q = Cc1noc2c1-c1ccc(-c3ccc(=O)n(C)c3)cc1N(c1ccc(C#N)cc1)CC2C (stereo not given)
input: Select the item with the higher value of fraction unbound from the options P and Q listed. The response must carry the label of the picked entry.
output: P

----------
Assay Procedure: Intrinsic clearance in rat liver microsomes
Value Type: microsomal CLint (µL/min/mg)

P = Cc1noc2c1-c1ccc(-c3ccc(N)nc3)cc1N(c1ccc(C#N)cc1)CC2C (stereo not drawn)
Q = Cc1nnc2n1-c1ccc(-c3ccc(N)nc3)cc1N(c1ccc(Cl)cc1)CC2C (stereo not drawn)
R = Cc1noc2c1-c1ccc(-c3cnn(C)c3)cc1N(c1ccc(C#N)cc1)CC2CC(N)=O (stereo not drawn)
input: Falling order of microsomal CLint, please. Please express your ranking as an ordered list of the labels.
output: P, Q, R
(P: 210 µL/min/mg, Q: 34 µL/min/mg, R: 22 µL/min/mg)

----------
Assay Procedure: Half life in rat at 10 mg/kg, po
Assay type: ADME, organism-based
Applied Conditions: in vivo
Value Type: half-life (h)
# output: bare number, implied unit h

input: Assign half-life to the following record: Cc1nnc2n1-c1ccc(-c3ccc(N)nc3)cc1N(c1ccc(Cl)cc1)C[C@H]2C
output: 1.8

----------
Assay Procedure: Intrinsic clearance in human liver microsomes
Value Type: microsomal CLint (µL/min/mg)

1 = Cc1noc2c1-c1ccccc1N(c1ccc(C#N)cc1)CC2
2 = Cc1noc2c1-c1ccc(-c3cnn(C)c3)cc1N(c1ccc(C#N)cc1)CC2CC(N)=O (stereo not drawn)
3 = Cc1noc2c1-c1ccc(-c3ccc(N)nc3)cc1N(c1ccc(C#N)cc1)CC2C (stereo not drawn)
input: Would you mind ranking these molecules by ascending microsomal CLint? Record the ranking as a list of labels in the requested order.
output: 1, 2, 3

----------
Assay Procedure: Half life in rat at 1 mg/kg, iv
Type: ADME, organism-based
Applied Conditions: in vivo
Value Type: half-life (min)
Form entry: value (min) — number only.

input: Look up and state reported half-life for Cc1nnc2n1-c1ccc(-c3ccc(N)nc3)cc1N(c1ccc(Cl)cc1)C[C@H]2C
output: 40.2

----------
Assay Procedure: Protein binding in dog plasma
Value Type: fraction unbound

Some entries whose results are on file:
Cc1noc2c1-c1ccc(-c3ccc(N)nc3)cc1N(c1ccc(C#N)cc1)CC2: < 0.01
Cc1noc2c1-c1ccccc1N(c1ccc(C#N)cc1)CC2: < 0.01

Turning now to a further record.
input: Return reported fraction unbound. Input compound: Cc1noc2c1-c1ccc(-c3ccc(N)nc3)cc1N(c1ccc(C#N)cc1)CC2C (stereo not drawn)
output: < 0.01
